tested on: MOLT-4; test: NCI tumour cell line growth inhibition, 48 h
Calls of active or inactive are those of the source. Cut-off read from the data, not from the text of the source: active = GI50 up to about 1.1 µM and inactive = higher.
I would appreciate it if you answered using one of these outcomes: active, inactive

Prompt: Dear colleague, could you share the recorded outcome for `O=[N+]([O-])C(/C=C(\Cl)[N+](=O)[O-])=C(Nc1ccccc1)Nc1ccccc1` when you have a moment?
Completion: inactive

Prompt: # lookup: test call for `N=C(N)SCCCN`
Completion: active

Prompt: Per the records of this test, what outcome belongs to CC1CCCC(C(=O)/C(=C/c2cccc(Cl)c2)C(=O)C(=O)O)C1 (configuration not stated) ?
Completion: inactive

Prompt: For this compound, state the assay outcome: CC1(CCCO)CCCCCC(C)(CCCO)C1=O (configuration not stated)
Completion: inactive

Prompt: Outcome logged for COc1ccc(COCC(Cn2ccnc2)OCc2ccc(C(=O)O)cc2)cc1 (configuration not stated) in this assay:
Completion: inactive

Prompt: Status in this test for `COc1ccc(CCc2cc(OC)c(O)c(OC)c2)cc1` ?
Completion: inactive

Prompt: Tell me the recorded outcome of this test for c1ccc(C2N=NN(c3ccccc3)C2N2CCCCC2)cc1 (configuration not stated) .
Completion: inactive

Prompt: Would you mind telling me which call this test gave `COc1ccc(N(C(=O)Nc2ccc(Cl)c(Cl)c2)c2ccccc2)cc1` ?
Completion: inactive

Prompt: // outcome(item) with item = `O=C(O)c1cc(/C=C/c2cc(O)ccc2O)ccc1O`
Completion: inactive

Prompt: Please state the recorded outcome for this compound: `O=C1c2ccccc2C(=O)c2c(NCCCNCCO)ccc(NCCCNCCO)c21`
Completion: inactive

Prompt: Please let me know the test result on file for `COC(=O)c1cccc(OC)c1C#Cc1c(OC)cccc1OC` .
Completion: inactive

Prompt: Status in this test for `Cc1ccc(NC(=O)c2nc(S)nc(N)c2-c2ccccc2C)cc1C` ?
Completion: inactive

###

system: SF-268; test: NCI tumour cell line growth inhibition, 48 h
Active and inactive are the calls of the source. Cut-off read from the data, not from the text of the source: active = GI50 up to about 1.1 µM and inactive = higher.
Consider the following compounds; for each one, report its GI50.

Prompt: Please report the recorded GI50 for `CC(C)OC(=O)c1ccc(NCC2=CC(=O)C=CC2=O)cc1` .
Completion: 12.3 µM (inactive)

Prompt: I have this compound here, `CN(C)CCNC(=O)c1c2ccccc2cc2ccccc12` , and I need its recorded GI50.
Completion: 44.7 µM (inactive)

Prompt: GET /values?readout=GI50&item= `COC(=O)/C=c1/c2ccccc2n2c1c1ccccc1[n+]2C`
Completion: 5.38 µM (inactive)

Prompt: GET /values?readout=GI50&item= COc1cccc(N2C(=O)[C@H]3CC(C)c4c([nH]c5ccccc45)[C@H]3C2=O)c1 (stereo partly specified)
Completion: > 100 µM (inactive)

Prompt: GI50 lookup needed for `O=C(NNC(=O)c1ccncc1)C(=O)Nc1cc(Cl)c(Cl)cc1Cl` , thanks.
Completion: > 100 µM (inactive)

Prompt: Can you look up the measured GI50 of COC1(c2ccc(Cl)cc2)SC=C(C)n2c1noc2=O (stereo unspecified) for me?
Completion: > 100 µM (inactive)

###

system: UO-31; assay: NCI tumour cell line growth inhibition, 48 h
Calls of active or inactive are those of the source. Cut-off read from the data, not from the text of the source: active = GI50 up to about 1.1 µM and inactive = higher.
Hi! Could you answer with just one of these? yes (active), no (inactive)

Prompt: // param item: `CC(C)=CCC[C@@H](C)C1=C(O)C(=O)C(C)=C(N[C@H](C)c2ccccc2)C1=O` ; yields the recorded call
Completion: no

Prompt: Status in this test for `Cc1ccc(/C=N/Nc2cc(C)c3ccccc3n2)s1` ?
Completion: no

Prompt: Per the records of this test, what outcome belongs to `Cc1nc(N)sc1/N=N/c1cc(Cl)c([N+](=O)[O-])cc1Cl` ?
Completion: no

Prompt: Recorded test outcome, item `COc1ccc(C)cc1Nc1nnc(-c2ccc(N)cc2)s1`
Completion: no

Prompt: Query: recorded result category for `COc1cc2c3c(c4cc(OC)c(OC)cc4c2cc1OC)[C@H](O)[C@@H]1CCCN1C3` in this test
Completion: yes

Prompt: // param item: `COc1ccc(S(=O)(=O)Nc2ccc(-c3csc(N4C(=O)/C(=C/c5ccccc5)N=C4c4ccccc4)n3)cc2)cc1Cl` ; yields the recorded call
Completion: no

Prompt: Give the logged outcome of this assay for the following molecule: `COc1ccc(OC)c(NC(=O)C(=O)NNC(=O)c2sc(NNC(C)=O)nc2C)c1`
Completion: no

Prompt: Identify the outcome logged in this assay for the molecule shown: `O=C1Nc2ccccc2/C1=N/Nc1ccc([N+](=O)[O-])cc1[N+](=O)[O-]`
Completion: no

Prompt: Give the logged outcome of this assay for the following molecule: `COc1ccc(-c2c3ccccc3c(-c3ccc(OCCBr)cc3)c3ccccc23)cc1`
Completion: yes

Prompt: // return assay outcome for `CCn1ncc(N=O)c1N`
Completion: no

Prompt: Can you look up the reported call for CSC1C(=O)Nc2ccc3ccccc3c21 (stereo not drawn) for me?
Completion: no

Prompt: Outcome logged for `O=C1/C(=C/c2ccc(Cl)cc2)N=C(c2ccccc2)N1c1ccc(S(=O)(=O)Nc2nccs2)cc1` in this assay:
Completion: no

Prompt: Could you kindly confirm the outcome this assay logged for COC1(c2ccc(Cl)cc2)SC=C(C)n2c1noc2=O (stereo not drawn) ?
Completion: no

Prompt: Identify the outcome logged in this assay for the molecule shown: `Cn1nc(-c2ccccc2)c(C(=O)/C=C/c2ccc(F)cc2)c(N2CCCC2)c1=O`
Completion: no

Prompt: Recorded test outcome, item CC1=C(C(=O)OCCc2ccc([N+](=O)[O-])cc2)C(c2ccccc2[N+](=O)[O-])C(C(=O)OC(C)C)=C(C)N1 (stereo not drawn)
Completion: no

Prompt: Any idea what this test logged for CCOC(=O)C1=C(C)NC(C)=C(C(=O)OCCNC(=O)c2ccc(N=[N+]=[N-])cc2)C1c1ccccc1C(F)(F)F (stereo not drawn) ?
Completion: no

Prompt: I would be grateful if you could indicate the recorded call for CC(=O)O[C@@H]1[C@@H](C)[C@]2(CC(c3ccoc3)OC2O)C2CCC3O[C@]3(C)[C@]2(C)[C@@H]1OC(C)=O (stereo partly drawn) .
Completion: no

Prompt: Could you kindly confirm the outcome this assay logged for `Oc1cn(-c2ccc(Cl)cc2)nc1-c1nnc(Nc2ccccc2)o1` ?
Completion: no

Prompt: Recorded call for CCN(CC)CCC(=O)OC1C(C)=CC(C)C(=O)CC(C(C)CC2CCC(O)C(OC)C2)OC(=O)C2CCCCN2C(=O)C(=O)[C@@]2(O)OC(CCC2C)CC(OC)\C(C)=C/C=C/C=C/C(C)CC(C)C(=O)C1OC (stereo partly drawn) ?
Completion: yes

Prompt: Assay outcome for `O=C1CCCC2=C(N1)C(=O)C=CC2=O` : what was it?
Completion: no

Prompt: Give the logged outcome of this assay for the following molecule: `CC(C)Oc1cccc(N2C(CCc3c[nH]c4ccc(Br)cc34)=NS(=O)(=O)c3cnccc32)c1`
Completion: no

Prompt: For this molecule, state the assay outcome: `COc1cc(/N=N\c2ccc(OC)c(S(=O)(=O)O)c2)c(C)cc1/N=N\c1ccc(/C=C/c2ccc(/N=[N+](/[O-])c3ccc(/C=C/c4ccc(/N=N/c5cc(C)c(/N=N\c6ccc(OC)c(S(=O)(=O)O)c6)cc5OC)cc4S(=O)(=O)O)c(S(=O)(=O)O)c3)cc2S(=O)(=O)O)c(S(=O)(=O)O)c1`
Completion: no

Prompt: Call for entry `CSc1ccc(/C=C2/C[N+](C)(C)C/C(=C/c3ccc(SC)cc3)C2=O)cc1` :
Completion: no

Prompt: GET /call?item= CC(C)CC(N)C(=O)OCN1C(=O)C2C3C=CC(C2C1=O)C1C2C(=O)N(COC(=O)C(N)CC(C)C)C(=O)C2C31 (stereo not drawn) returns the recorded outcome of this test.
Completion: no

Prompt: Outcome? `Nc1nnc2ccc(Cl)cc2[n+]1[O-]`
Completion: no

Prompt: For CCOC(=O)C1=COC(C)(CCc2ccccc2)CC1=O (stereo not drawn) , what call appears in the results of this test?
Completion: no

Prompt: I'd appreciate the recorded outcome for `c1cc2[se][se]c3c4cccc5[se][se]c(c(c1)c23)c54` from this test.
Completion: no

Prompt: Outcome logged for `FC(F)(F)c1cccnc1Sc1nc2ccccc2s1` in this assay:
Completion: no

Prompt: Given `CNC/C(Cl)=N/S(=O)(=O)c1ccc(C)cc1` , state the outcome it received in this test.
Completion: no

Prompt: Hey, what did the test say about O=C(CCCCCC(=O)N1CC(CCl)c2ccc([N+](=O)[O-])cc21)N1CC(CCl)c2ccc([N+](=O)[O-])cc21 (stereo not drawn) ?
Completion: no

Prompt: For this molecule, state the assay outcome: C=C[C@@H]1C(CO)=CCC2[C@H]1CCC1C(C)(C)C(=O)CC[C@]21C (stereo partly drawn)
Completion: no

Prompt: Hi, sorry to bother you, what did the test record for CC(NC1=NCCO1)c1ccsc1 (stereo not drawn) ?
Completion: no

Prompt: Call for entry `C=CCSSCC=C` :
Completion: no

Prompt: Recorded call for COC(=O)NC(=O)c1cn(C2OC(CO)C(O)C2O)c(=O)[nH]c1=O (stereo not drawn) ?
Completion: no

Prompt: What classification did Cc1ccc(S(=O)(=O)NC(=O)NC(CO)C(=O)O)cc1 (stereo not drawn) end up with in this test?
Completion: no

Prompt: Check the results log: what was the call for CN1CCN(CN2C(=O)C3C4C=CC(C3C2=O)C2C(=O)N(CN3CCN(C)CC3)C(=O)C42)CC1 (stereo not drawn) ?
Completion: no

Prompt: Recorded test outcome, item O=C1/C(=C\c2ccccc2)C(NC2CCCCC2)c2ccccc21 (stereo not drawn)
Completion: yes

Prompt: // return assay outcome for `O=C(CC(=O)c1ccccc1)C(=O)Nc1ccc(Cl)cc1`
Completion: no

Sourced from ChEMBL document CHEMBL1201862
